target_or_test_system: Voltage-gated potassium channel subunit beta-2 (Rattus norvegicus) (UniProt P62483)
Sequence (P62483 whole entry, looked up): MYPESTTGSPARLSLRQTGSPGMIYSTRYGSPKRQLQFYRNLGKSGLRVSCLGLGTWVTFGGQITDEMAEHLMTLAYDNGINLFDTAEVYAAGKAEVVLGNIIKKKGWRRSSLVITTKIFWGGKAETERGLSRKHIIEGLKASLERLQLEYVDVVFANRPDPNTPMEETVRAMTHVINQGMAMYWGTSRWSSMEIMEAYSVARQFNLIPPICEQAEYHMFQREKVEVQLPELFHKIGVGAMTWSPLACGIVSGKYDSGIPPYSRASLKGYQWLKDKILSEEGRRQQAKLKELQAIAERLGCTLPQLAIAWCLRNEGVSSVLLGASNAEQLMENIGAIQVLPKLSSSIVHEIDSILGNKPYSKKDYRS
assay_procedure: enhancers of rat Kvbeta2 NADPH turnover – biochemical, NADPH fluorescence, primary screen (AID 623);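 also: fluorescence intensity change per second fitted from 20 to 320 s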
condition_description: Recombinant KvBeta, NADPH fluorescence decrease slope, 10 min; at 10 µM; hits give low values
parameter_measured: NADPH fluorescence slope
Give bare numbers.

Completed entries (count: 2):
compound	NADPH fluorescence slope
CC(=O)c1cc(-c2ccc(F)cc2)n(CCC(=O)Nc2cc(C)[nH]n2)c1C	-3.1e-05
O=C(NCCN1C(=O)C2C3C=CC(C3)C2C1=O)N1CCOCC1 (stereo unspecified)	-1e-05

For each listed entry, give its NADPH fluorescence slope.
1. COc1ccc(CCNC(=O)C2=COCCO2)cc1
2. CCOC(=O)N1CCC(NC(=O)c2ccc3c(c2)sc2nc(-c4cccc(OC)c4)cn23)CC1

[reply]
-2.9e-05
-2.7e-05

For each listed entry, give its NADPH fluorescence slope.
1. O=C(NCc1cccs1)C1CCCN(c2ncccn2)C1 (stereo unspecified)
2. COC(=O)c1[nH]c2ccc(C)cc2c1NC(=O)CN1CCCc2ccccc21
3. COC(=O)C1=C(CSCc2ccco2)NC(=O)NC1c1cc(C)ccc1C (stereo unspecified)
4. Cc1ccc(C(=O)Nc2ccc(Cl)cn2)cc1S(=O)(=O)N1CCOCC1

[reply]
1. -1.3e-05
2. -4.8e-05
3. 3.5e-05
4. 9.5e-06

For each listed entry, give its NADPH fluorescence slope.
1. N#Cc1c(-c2ccccc2)nc(N2CCCCCC2)[nH]c1=O
2. COc1cc2c(cc1OC)C(c1ccc(C)o1)CC(=O)N2 (stereo unspecified)
3. O=C(CN1CCCCCC1)OCCN=C1NS(=O)(=O)c2ccccc21
4. CCC(=O)N(CCCN(C)C)c1nc(-c2cc(OC)ccc2OC)cs1

[reply]
1: -1.5e-05; 2: -3e-05; 3: -6.1e-06; 4: -6.2e-05
